Measured normalized RNA/DNA level with ligand (log10) accompanies every entry in the list below.
B1: library; a variant is named by its letters at N, in order (parent)
chain: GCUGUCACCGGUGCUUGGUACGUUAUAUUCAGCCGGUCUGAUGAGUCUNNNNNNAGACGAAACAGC

Variants of: B1
Test: normalized RNA/DNA level with ligand (relative to sTRSVctl = 100) (log10 (% of sTRSVctl)); HEK293T overexpressing SLC46A1; ligand concentration (+) RNA-Seq: 6 mM; higher = less ribozyme self-cleavage, higher mRNA level
Details: with (6R,S)-folinic acid; ligand present: yes
Give the figure only, with no unit attached.

Inquiry: Retrieve normalized RNA/DNA level with ligand (log10) measured for GCUGUCACCGGUGCUUGGUACGUUAUAUUCAGCCGGUCUGAUGAGUCUGCACGAAGACGAAACAGC and print it.
Reply text: 2.03

Inquiry: Give recorded normalized RNA/DNA level with ligand (log10). GCUGUCACCGGUGCUUGGUACGUUAUAUUCAGCCGGUCUGAUGAGUCUGCAAGCAGACGAAACAGC
Reply text: 2.02

Inquiry: Return the recorded normalized RNA/DNA level with ligand (log10) value; entry: GCUGUCACCGGUGCUUGGUACGUUAUAUUCAGCCGGUCUGAUGAGUCUGGGUCAAGACGAAACAGC
Reply text: 2.09

Inquiry: Give the reported normalized RNA/DNA level with ligand (log10) for this variant. GCUGUCACCGGUGCUUGGUACGUUAUAUUCAGCCGGUCUGAUGAGUCUUACUUUAGACGAAACAGC
Reply text: 2.03

Inquiry: Given the variant GCUGUCACCGGUGCUUGGUACGUUAUAUUCAGCCGGUCUGAUGAGUCUCCUUGGAGACGAAACAGC , write its reported normalized RNA/DNA level with ligand (log10).
Reply text: 2.01

Inquiry: Report normalized RNA/DNA level with ligand (log10), nothing else, for this variant: GCUGUCACCGGUGCUUGGUACGUUAUAUUCAGCCGGUCUGAUGAGUCUACUGAGAGACGAAACAGC
Reply text: 2

Inquiry: Give the reported normalized RNA/DNA level with ligand (log10) for this variant. GCUGUCACCGGUGCUUGGUACGUUAUAUUCAGCCGGUCUGAUGAGUCUAACUGGAGACGAAACAGC
Reply text: 2

Inquiry: Give me measured normalized RNA/DNA level with ligand (log10), please, for this variant: GCUGUCACCGGUGCUUGGUACGUUAUAUUCAGCCGGUCUGAUGAGUCUGACACAAGACGAAACAGC
Reply text: 2

Inquiry: Return the recorded normalized RNA/DNA level with ligand (log10) value; entry: GCUGUCACCGGUGCUUGGUACGUUAUAUUCAGCCGGUCUGAUGAGUCUCUAUUAAGACGAAACAGC
Reply text: 2.01

Inquiry: Provide normalized RNA/DNA level with ligand (log10) value for the following variant: GCUGUCACCGGUGCUUGGUACGUUAUAUUCAGCCGGUCUGAUGAGUCUGCCAGGAGACGAAACAGC
Reply text: 2

***
Inquiry: Report normalized RNA/DNA level with ligand (log10) for GCUGUCACCGGUGCUUGGUACGUUAUAUUCAGCCGGUCUGAUGAGUCUUGGCACAGACGAAACAGC
Reply text: 2.04

Inquiry: // fetch normalized RNA/DNA level with ligand (log10) given entry GCUGUCACCGGUGCUUGGUACGUUAUAUUCAGCCGGUCUGAUGAGUCUUUUACUAGACGAAACAGC
Reply text: 2.03

Inquiry: Provide normalized RNA/DNA level with ligand (log10) value for the following variant: GCUGUCACCGGUGCUUGGUACGUUAUAUUCAGCCGGUCUGAUGAGUCUGAUAACAGACGAAACAGC
Reply text: 2.01

Inquiry: // fetch normalized RNA/DNA level with ligand (log10) given entry GCUGUCACCGGUGCUUGGUACGUUAUAUUCAGCCGGUCUGAUGAGUCUGGUCGGAGACGAAACAGC
Reply text: 2.07

Inquiry: Supply recorded normalized RNA/DNA level with ligand (log10) for GCUGUCACCGGUGCUUGGUACGUUAUAUUCAGCCGGUCUGAUGAGUCUGACUUCAGACGAAACAGC here.
Reply text: 2.06

Inquiry: Query normalized RNA/DNA level with ligand (log10) for GCUGUCACCGGUGCUUGGUACGUUAUAUUCAGCCGGUCUGAUGAGUCUAGCCCGAGACGAAACAGC
Reply text: 2.02

Inquiry: For the variant GCUGUCACCGGUGCUUGGUACGUUAUAUUCAGCCGGUCUGAUGAGUCUUAAAAGAGACGAAACAGC , report normalized RNA/DNA level with ligand (log10).
Reply text: 1.96

Inquiry: Item GCUGUCACCGGUGCUUGGUACGUUAUAUUCAGCCGGUCUGAUGAGUCUCAUUACAGACGAAACAGC : provide normalized RNA/DNA level with ligand (log10)
Reply text: 1.98
